target: T1, FX activation peptide 12-mer DAADLDPTENPF (human); test: peptide ELISA
T1 peptide: DAADLDPTENPF-biotin
Ends that are not written are not given here.
Measured ELISA signal relative to background, listed per entry for reference.

{"binder": "Nb 701C06 (VHH, monovalent Nanobody; not shown: C-terminal FLAG3 and HIS6 tag) VHH: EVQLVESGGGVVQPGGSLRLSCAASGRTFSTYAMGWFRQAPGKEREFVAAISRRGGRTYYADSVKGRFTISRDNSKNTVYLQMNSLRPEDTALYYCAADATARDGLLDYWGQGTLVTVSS", "ELISA signal relative to background": 0.85}
{"binder": "Nb 702C12 (VHH, monovalent Nanobody; not shown: C-terminal FLAG3 and HIS6 tag) VHH: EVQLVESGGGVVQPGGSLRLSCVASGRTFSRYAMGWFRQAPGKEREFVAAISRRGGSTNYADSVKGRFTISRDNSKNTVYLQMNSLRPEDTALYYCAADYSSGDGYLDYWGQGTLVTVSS", "ELISA signal relative to background": 0.88}
{"binder": "Nb 729C08 (VHH, monovalent Nanobody; also called Nb 729008; not shown: C-terminal FLAG3 and HIS6 tag) VHH: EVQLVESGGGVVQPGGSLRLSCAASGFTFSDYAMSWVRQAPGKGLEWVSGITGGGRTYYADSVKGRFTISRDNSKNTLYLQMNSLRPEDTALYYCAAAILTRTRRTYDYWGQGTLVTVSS", "ELISA signal relative to background": 1.18}
{"binder": "Nb 729A04 (VHH, monovalent Nanobody; not shown: C-terminal FLAG3 and HIS6 tag) VHH: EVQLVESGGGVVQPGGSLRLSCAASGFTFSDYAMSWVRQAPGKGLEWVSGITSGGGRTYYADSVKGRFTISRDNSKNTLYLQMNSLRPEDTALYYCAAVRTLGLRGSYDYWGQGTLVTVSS", "ELISA signal relative to background": 1.1}
